- Test system: E. coli TESEC Mtb Alr
- Measurement notes: growth (OD600 after 10 h); higher = more growth (less inhibition)
- Stated conditions: arabinose 100000 nM; compound 0.1 mM; raw OD600 reference: median of DMSO wells 0.201, cell-free background 0.041
Where a name gives a salt, the structure may show the parent alone.
# key: entry, value: growth
No unit in the answer, only the number.

The cases that follow already have their growth on record.
O=C1CCc2cc(OCCCCc3nnnn3C3CCCCC3)ccc2N1; 0.125
Cn1c(=O)c2c(ncn2CC(=O)O)n(C)c1=O; 0.21
COC(=O)C1=C(C)NC(C)=C(C(=O)OCCN(C)Cc2ccccc2)C1c1cccc([N+](=O)[O-])c1 (centres undefined) [Nicardipine hydrochloride]; 0.049

Input: Record request: growth value, item NC(=O)C(c1ccccc1)(c1ccccc1)[C@@H]1CCN(CCc2ccc3c(c2)CCO3)C1 [Darifenacin hydrobromide]
Output: 0.16

###

- Test system: E. coli TESEC Mtb Alr
- Measurement notes: growth (OD600 after 10 h); higher = more growth (less inhibition)
- Stated conditions: arabinose 1000000 nM; compound 0.1 mM; raw OD600 reference: median of DMSO wells 0.193, cell-free background 0.041
Counter-ions that a name gives are not always drawn.
Property measured: growth
No unit in the answer, only the number.

The cases that follow already have their growth on record.
Clc1ccc(C(Cn2ccnc2)OCc2c(Cl)cccc2Cl)c(Cl)c1 (stereo not drawn) [Isoconazole]; 0.105
CC[N+](CC)(CC)CCC(O)(c1ccccc1)C1CCCCC1 (stereo not drawn) [Tridihexethyl chloride]; 0.185
CCc1nc(N)nc(N)c1-c1ccc(Cl)cc1 [Pyrimethamine]; 0.0795
CCC[C@@H]1C[C@@H](C(=O)N[C@@H]([C@H]2O[C@H](SC)[C@H](O)[C@@H](O)[C@H]2O)[C@@H](C)O)N(C)C1 [Lincomycin hydrochloride]; 0.0692
CCN(CC)CCNC(C(=O)OCCC(C)C)c1ccccc1 (stereo not drawn) [Camylofine chlorhydrate]; 0.156
COc1ccccc1O [Guaiacol]; 0.203
CC(=O)O[C@H]1C[C@@]2(C)[C@@H](C[C@@H](O)[C@H]3[C@@]4(C)CC[C@@H](O)[C@@H](C)[C@@H]4CC[C@@]32C)/C1=C(\CCC=C(C)C)C(=O)O [Fusidic acid sodium salt]; 0.0403
Cn1c(=O)c2c(ncn2CC2OCCO2)n(C)c1=O [Doxofylline]; 0.179

Input: Record request: growth value, item NCCCC(O)(P(=O)(O)O)P(=O)(O)O [Alendronate sodium]
Output: 0.178

Input: Record request: growth value, item Cc1cccc(CN2CCN(C(c3ccccc3)c3ccc(Cl)cc3)CC2)c1 (stereo not drawn) [Meclozine dihydrochloride]
Output: 0.129

Input: Record request: growth value, item CNCC[C@@H](Oc1ccccc1C)c1ccccc1 [Tomoxetine hydrochloride]
Output: 0.139

Input: Record request: growth value, item CO[C@@]1(NC(=O)Cc2cccs2)C(=O)N2C(C(=O)O)=C(COC(N)=O)CS[C@@H]21 [Cefoxitin sodium salt]
Output: 0.0398

Input: Record request: growth value, item CC(C)(Sc1cc(C(C)(C)C)c(O)c(C(C)(C)C)c1)Sc1cc(C(C)(C)C)c(O)c(C(C)(C)C)c1 [Probucol]
Output: 0.172

Input: Record request: growth value, item CCCN[C@H]1CCc2nc(N)sc2C1 [Pramipexole dihydrochloride]
Output: 0.191
